Values from PubChem BioAssay (NCI)

Test system: SF-295 CNS
Test: NCI-60 one-dose screen, 48 h
Settings: 10 µM unless noted
This is part of a sample that, as a whole, favours compounds with a hit. Of some 83,000 tested, about 20% had one in any assay. Active and inactive are the calls of the source. How the source made its calls: active means growth percent below 10; inactive means the rest.
Log the outcome using a class from y (active), n (inactive)

Some solved cases for reference:
// query Assay result, entry `CC(C)[C@@]12C[C@@H](OC(=O)[C@H]3CO3)[C@@](C)(O1)[C@@H]1CC[C@@H](C)[C@H]1[C@@H]2OC(=O)/C=C/c1ccccc1` — outcome?
// result n

// query Look up the recorded call for `CCCCCCCOc1cccc(/C=C2\N=C3SCCCN3C2=O)c1` in this test.
// result n

// query Entry `CCCCCCCCN=C(NCCCCCCCC)SCc1cccc2ccccc12` : call = ?
// result y

// query Name the outcome recorded for `CC(=O)c1ccc(N2C(=O)c3ccc(Oc4ccccc4)cc3C2=O)cc1` in the assay.
// result n

// query # outcome recorded in this test, key = `Cc1c2c(cc3c1[nH]c1ccccc13)C=NCC2`
// result n

Continuing:
// query Called result for `CCCCCc1c(C)[nH]c(/C=C2\N=C(c3ccc[nH]3)C=C2Oc2ccc(OC)cc2)c1C`
// result y

// query Tell me the assay call for COc1cc(NCC(O)CN(CC(C)C)CC(C)C)c2ncccc2c1 (stereo not given) please.
// result n

// query What was the test verdict on CC1CCCN(CCCCOc2ccc(-c3ccc(C#N)cc3)cc2)C1 (stereo not given) ?
// result n

// query Call for entry `Cc1cccc(N=NC(=S)NNc2cccc(C)c2)c1` :
// result n

// query Hi team, can someone confirm the assay call for `C#C[C@]1(O)CC[C@H]2[C@@H]3CC=C4c5sc(-c6cccc(Br)c6)nc5CC[C@]4(C)[C@H]3CC[C@@]21C` ?
// result n
